Values compiled from ChEMBL document CHEMBL1147144.

- System: Brain
- procedure_text: Biodistribution in ICR mouse brain at 5 to 10 uCi, iv after 2 mins
- Format: ADME, organism-based
- condition_description: in vivo
Please go through the items and note down their Drug uptake.
Express the result in % ID/g but write the number alone.

Task: Looking for the measured Drug uptake of CNc1ccc(/C=C/c2cnc(OCCO)c([125I])c2)cc1 , can you help?
Result: 8.04

Task: Do the same for OCCOc1ncc(/C=C/c2ccc(O)cc2)cc1[125I] please
Result: 0.99

Task: Okay, and CN(C)c1ccc(/C=C/c2cnc(OCCOCCOCCF)c([125I])c2)cc1 ?
Result: 4.03

Task: Moving on to CN(C)c1ccc(/C=C/c2cnc(OCCO)c([125I])c2)cc1
Result: 5.43

Task: Another compound to look at: CNc1ccc(/C=C/c2cnc(OCCOCCOCCF)c([125I])c2)cc1
Result: 6.22

====

Kindly state Drug uptake for each of the entries shown.
- System: Spleen
- procedure_text: Biodistribution in ICR mouse spleen at 5 to 10 uCi, iv after 1 hr
- Assay type: ADME, organism-based
- condition_description: in vivo
Give just the number in % ID/g; leave the unit off.

Task: Drug uptake for CN(C)c1ccc(/C=C/c2cnc(OCCOCCOCCF)c([125I])c2)cc1 ?
Result: 0.99

Task: Next compound up: OCCOc1ncc(/C=C/c2ccc(O)cc2)cc1[125I]
Result: 0.5

Task: Another compound to look at: CNc1ccc(/C=C/c2cnc(OCCOCCOCCF)c([125I])c2)cc1
Result: 1.75

Task: For CN(C)c1ccc(/C=C/c2cnc(OCCO)c([125I])c2)cc1 then?
Result: 1.32

Task: Please do the same for CNc1ccc(/C=C/c2cnc(OCCO)c([125I])c2)cc1 as well.
Result: 0.87

====

- Tested on: Blood
- procedure_text: Biodistribution in ICR mouse blood at 5 to 10 uCi, iv after 2 hrs
- Format: ADME, organism-based
- condition_description: in vivo
assay_readout: Drug uptake

Task: Which Drug uptake reading was recorded for the molecule CN(C)c1ccc(/C=C/c2cnc(OCCOCCOCCF)c([125I])c2)cc1 ?
Result: 1.45 % ID/g

Task: Entry to check: CNc1ccc(/C=C/c2cnc(OCCO)c([125I])c2)cc1
Result: 1.96 % ID/g

Task: Same again, this time with OCCOc1ncc(/C=C/c2ccc(O)cc2)cc1[125I]
Result: 1.56 % ID/g

Task: Follow-up item: CNc1ccc(/C=C/c2cnc(OCCOCCOCCF)c([125I])c2)cc1
Result: 2.21 % ID/g

Task: What do you get for CN(C)c1ccc(/C=C/c2cnc(OCCO)c([125I])c2)cc1 ?
Result: 1.01 % ID/g

====

- Tested on: Thyroid gland
- procedure_text: Biodistribution in ICR mouse thyroid at 5 to 10 uCi, iv after 2 mins
- Format: ADME, organism-based
- condition_description: in vivo
assay_readout: Drug uptake (% ID/g)
API: value field is a number in % ID/g; no unit string.

Task: Could you share what Drug uptake was measured for CNc1ccc(/C=C/c2cnc(OCCOCCOCCF)c([125I])c2)cc1 , tested on Thyroid gland?
Result: 5.74

Task: Can you check CN(C)c1ccc(/C=C/c2cnc(OCCOCCOCCF)c([125I])c2)cc1 next?
Result: 3.89

Task: Item: OCCOc1ncc(/C=C/c2ccc(O)cc2)cc1[125I]
Result: 4.38

Task: Same read-out for CNc1ccc(/C=C/c2cnc(OCCO)c([125I])c2)cc1 ?
Result: 6.31

Task: Try the compound CN(C)c1ccc(/C=C/c2cnc(OCCO)c([125I])c2)cc1
Result: 4.15
